Target: T1, eTau-4 peptide
T1 construct: also called synthetic eTau4 polypeptide
T1 peptide: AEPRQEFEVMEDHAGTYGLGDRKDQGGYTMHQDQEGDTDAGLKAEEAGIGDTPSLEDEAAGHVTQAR
Assay: relative binding affinity, method not named (Table 4); sixth column, headed eTau 4
Result Type: Kd (nM)

>>> meas_value("VH1/Vk1 (antibody, V domains shown, member of the group m7; also called humanized IPN002 variant VH1/Vk1) VH: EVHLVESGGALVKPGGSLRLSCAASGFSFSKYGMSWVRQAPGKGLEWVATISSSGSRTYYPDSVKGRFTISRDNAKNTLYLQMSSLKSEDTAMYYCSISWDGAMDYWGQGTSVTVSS VL: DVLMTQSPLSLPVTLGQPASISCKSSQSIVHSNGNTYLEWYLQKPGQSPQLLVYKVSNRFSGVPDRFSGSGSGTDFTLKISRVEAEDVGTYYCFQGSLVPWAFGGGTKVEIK")
0.577
>>> meas_value("VH1/Vk4 (antibody, V domains shown, member of the group m7; also called humanized IPN002 variant VH1/Vk4) VH: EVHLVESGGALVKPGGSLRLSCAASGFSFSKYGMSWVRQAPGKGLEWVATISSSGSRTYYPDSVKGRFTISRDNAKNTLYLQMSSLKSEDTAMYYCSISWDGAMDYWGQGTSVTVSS VL: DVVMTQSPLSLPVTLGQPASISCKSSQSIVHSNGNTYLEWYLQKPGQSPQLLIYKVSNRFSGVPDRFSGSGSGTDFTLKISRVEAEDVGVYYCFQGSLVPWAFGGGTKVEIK")
0.869
>>> meas_value("humanized IPN002 variant VH2/Vk2 (antibody, V domains shown) VH: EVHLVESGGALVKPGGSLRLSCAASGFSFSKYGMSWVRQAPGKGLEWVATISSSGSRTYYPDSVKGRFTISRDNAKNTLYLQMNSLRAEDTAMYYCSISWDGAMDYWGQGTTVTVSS VL: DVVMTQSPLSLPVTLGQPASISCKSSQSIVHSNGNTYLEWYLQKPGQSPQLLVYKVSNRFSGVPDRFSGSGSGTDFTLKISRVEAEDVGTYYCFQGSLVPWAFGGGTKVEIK")
0.394
>>> meas_value("humanized IPN002 variant VH2/Vk1 (antibody, V domains shown) VH: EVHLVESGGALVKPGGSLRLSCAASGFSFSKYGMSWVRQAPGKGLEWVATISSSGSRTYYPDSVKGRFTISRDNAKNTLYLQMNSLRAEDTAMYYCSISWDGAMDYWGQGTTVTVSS VL: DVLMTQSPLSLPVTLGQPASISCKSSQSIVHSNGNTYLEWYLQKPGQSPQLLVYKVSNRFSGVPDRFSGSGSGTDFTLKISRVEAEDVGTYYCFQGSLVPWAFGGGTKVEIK")
0.321
>>> meas_value("VH3/Vk2 (antibody, V domains shown, member of the group m7; also called humanized IPN002 variant VH3/Vk2) VH: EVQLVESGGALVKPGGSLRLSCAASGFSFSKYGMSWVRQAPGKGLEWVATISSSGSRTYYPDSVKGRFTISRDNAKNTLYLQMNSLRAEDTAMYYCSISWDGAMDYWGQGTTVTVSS VL: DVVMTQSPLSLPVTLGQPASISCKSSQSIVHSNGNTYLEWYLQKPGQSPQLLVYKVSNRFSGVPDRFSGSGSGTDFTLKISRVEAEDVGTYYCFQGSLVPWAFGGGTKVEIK")
0.701
>>> meas_value("VH1/Vk3 (antibody, V domains shown, member of the group m7; also called humanized IPN002 variant VH1/Vk3) VH: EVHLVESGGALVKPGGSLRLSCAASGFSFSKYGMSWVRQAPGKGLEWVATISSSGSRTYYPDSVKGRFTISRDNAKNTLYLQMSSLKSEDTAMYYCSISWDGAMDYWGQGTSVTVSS VL: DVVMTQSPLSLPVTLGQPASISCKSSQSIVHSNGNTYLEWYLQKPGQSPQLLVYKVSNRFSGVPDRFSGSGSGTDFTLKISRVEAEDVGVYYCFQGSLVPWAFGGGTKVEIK")
0.761
>>> meas_value("VH4/Vk3 (antibody, V domains shown, member of the group m7; also called humanized IPN002 variant VH4/Vk3) VH: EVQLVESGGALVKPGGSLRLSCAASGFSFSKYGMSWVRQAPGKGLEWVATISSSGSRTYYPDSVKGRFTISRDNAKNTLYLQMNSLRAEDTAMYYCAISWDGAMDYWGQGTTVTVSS VL: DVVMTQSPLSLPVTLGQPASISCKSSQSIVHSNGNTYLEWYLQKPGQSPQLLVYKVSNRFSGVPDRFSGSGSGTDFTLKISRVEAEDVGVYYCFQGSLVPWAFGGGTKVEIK")
0.629
>>> meas_value("VH4/Vk2 (antibody, V domains shown, member of the group m7; also called humanized IPN002 variant VH4/Vk2) VH: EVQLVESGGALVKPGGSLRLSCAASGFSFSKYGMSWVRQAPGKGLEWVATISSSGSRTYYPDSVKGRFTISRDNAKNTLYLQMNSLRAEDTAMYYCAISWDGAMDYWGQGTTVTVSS VL: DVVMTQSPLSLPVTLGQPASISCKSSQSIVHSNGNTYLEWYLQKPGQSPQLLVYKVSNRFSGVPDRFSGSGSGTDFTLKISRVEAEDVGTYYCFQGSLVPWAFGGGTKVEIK")
0.467
>>> meas_value("VH4/Vk4 (antibody, V domains shown, member of the group m7; also called humanized IPN002 variant VH4/Vk4) VH: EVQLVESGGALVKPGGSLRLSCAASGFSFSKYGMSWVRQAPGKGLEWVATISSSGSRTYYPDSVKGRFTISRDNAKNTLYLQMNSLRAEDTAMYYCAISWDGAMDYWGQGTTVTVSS VL: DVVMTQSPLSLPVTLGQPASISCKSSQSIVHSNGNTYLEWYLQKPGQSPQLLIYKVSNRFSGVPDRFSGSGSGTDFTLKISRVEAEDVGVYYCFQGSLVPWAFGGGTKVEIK")
1.03
>>> meas_value("humanized IPN002 variant VH2/Vk3 (antibody, V domains shown) VH: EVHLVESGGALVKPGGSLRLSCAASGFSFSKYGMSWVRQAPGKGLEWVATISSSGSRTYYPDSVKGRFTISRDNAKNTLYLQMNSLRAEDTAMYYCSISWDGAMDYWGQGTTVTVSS VL: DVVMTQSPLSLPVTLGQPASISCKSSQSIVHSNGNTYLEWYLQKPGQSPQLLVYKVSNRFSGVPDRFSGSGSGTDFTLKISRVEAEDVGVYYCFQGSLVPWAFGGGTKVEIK")
0.411
